TARGET_OR_TEST_SYSTEM: Gag-Pol polyprotein (Human immunodeficiency virus type 2 subtype A (isolate ROD)) (UniProt P04584)
Sequence (P04584 whole entry, looked up): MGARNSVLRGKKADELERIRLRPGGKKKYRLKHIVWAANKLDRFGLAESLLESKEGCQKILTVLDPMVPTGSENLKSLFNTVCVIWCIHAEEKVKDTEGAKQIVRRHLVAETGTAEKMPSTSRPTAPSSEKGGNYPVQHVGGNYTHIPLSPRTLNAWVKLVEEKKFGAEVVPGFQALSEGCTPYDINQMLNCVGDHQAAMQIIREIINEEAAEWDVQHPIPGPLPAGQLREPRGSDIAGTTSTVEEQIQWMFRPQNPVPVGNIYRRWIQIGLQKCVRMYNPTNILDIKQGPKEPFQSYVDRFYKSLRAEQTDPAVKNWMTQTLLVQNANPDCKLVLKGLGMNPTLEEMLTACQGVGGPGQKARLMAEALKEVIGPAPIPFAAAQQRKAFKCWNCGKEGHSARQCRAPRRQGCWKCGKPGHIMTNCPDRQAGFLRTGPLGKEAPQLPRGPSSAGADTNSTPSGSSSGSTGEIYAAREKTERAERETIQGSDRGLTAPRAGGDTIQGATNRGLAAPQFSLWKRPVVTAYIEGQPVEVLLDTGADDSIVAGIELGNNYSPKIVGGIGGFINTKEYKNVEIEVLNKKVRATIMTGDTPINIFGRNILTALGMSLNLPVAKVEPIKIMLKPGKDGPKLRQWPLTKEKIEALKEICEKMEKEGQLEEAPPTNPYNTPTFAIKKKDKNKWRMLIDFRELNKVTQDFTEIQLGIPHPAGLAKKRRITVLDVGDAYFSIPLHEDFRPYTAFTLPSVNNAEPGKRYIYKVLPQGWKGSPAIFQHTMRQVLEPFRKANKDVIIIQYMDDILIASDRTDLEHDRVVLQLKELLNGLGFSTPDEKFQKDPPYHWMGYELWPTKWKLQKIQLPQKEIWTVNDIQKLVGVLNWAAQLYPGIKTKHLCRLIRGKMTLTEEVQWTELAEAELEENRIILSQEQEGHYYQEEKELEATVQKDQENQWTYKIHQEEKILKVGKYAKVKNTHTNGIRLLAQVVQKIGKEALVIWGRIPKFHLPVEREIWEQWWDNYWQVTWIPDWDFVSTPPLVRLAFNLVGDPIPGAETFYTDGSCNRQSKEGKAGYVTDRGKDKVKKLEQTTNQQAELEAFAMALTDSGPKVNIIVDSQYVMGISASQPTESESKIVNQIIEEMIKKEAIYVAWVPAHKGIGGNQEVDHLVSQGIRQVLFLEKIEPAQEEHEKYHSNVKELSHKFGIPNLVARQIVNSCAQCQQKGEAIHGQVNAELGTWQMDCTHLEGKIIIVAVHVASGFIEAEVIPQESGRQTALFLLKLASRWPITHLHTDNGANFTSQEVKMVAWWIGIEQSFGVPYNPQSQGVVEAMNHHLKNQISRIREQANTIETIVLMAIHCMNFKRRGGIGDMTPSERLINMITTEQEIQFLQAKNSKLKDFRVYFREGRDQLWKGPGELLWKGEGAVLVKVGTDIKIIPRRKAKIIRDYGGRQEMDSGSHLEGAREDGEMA
METHOD: Ribonuclease H inhibitors of HIV-2 reverse transcriptase, biochemical dose response (AID 367)
CONDITION_PARAMETERS: HIV-2 RNase H, FRET RNA/DNA substrate cleavage
Activity calls are given as the source filed them. The rule behind the calls is not given here.
Reply using exactly one outcome from active, inactive

Query :: Query: recorded result category for Cc1cc(=O)c2c(O)c3c(O)cc(O)c4c5c(O)cc(O)c6c(O)c7c(=O)cc(C)c8c1c2c(c34)c(c65)c78 in this test
Result :: inactive

Query :: Just curious, what result did C[C@@H]1Oc2c3c(c4c(-c5ccccc5)cc(=O)oc4c2C(=O)[C@H]1C)OC(C)(C)C=C3 get here?
Result :: active

Query :: What classification did O=C1NC(=S)S/C1=C/c1cccc(OCc2ccc(Cl)c(Cl)c2)c1 end up with in this test?
Result :: active

Query :: Please state the recorded outcome for this compound: Cc1cc(C(=O)O)ccc1-n1c(C)ccc1C
Result :: inactive

Query :: Look up the recorded call for O=C(O)c1cc(-c2ccc(/C=C3/Sc4ccccc4C3=O)o2)ccc1O in this test.
Result :: active

Query :: Which outcome was assigned to Cc1ccc(S(=O)(=O)/N=C2\C=CC(=O)C=C2Cl)cc1 in this test?
Result :: active

Query :: Record request — test call for O=C1NC(=O)/C(=C/c2ccc(-c3ccc(O)c(C(=O)O)c3)o2)S1
Result :: active

Query :: What classification did O=C1C=CC2=C3c4cc(O)c(O)cc4CC3(O)COC2=C1O (stereo not given) end up with in this test?
Result :: active

Query :: Per the assay record, what outcome was assigned to NC(=O)c1c(NC(=O)CCc2ccccc2)sc2c1CCCCCC2 ?
Result :: active

Query :: Fill in: this test's call for O=[N+]([O-])c1c(Cl)cccc1-c1c[nH]cc1Cl is ___
Result :: inactive
